molecular target: Nav1.7 (Homo sapiens, UniProt Q15858); construct: expressed in transfected cells; assay: Inhibition of Nav1.7 channel current in CHO cells stably expressing Nav1.7; type: cell-based; details: CHO cells stably expressing Nav1.7, channel current
Sequence (Q15858 whole entry): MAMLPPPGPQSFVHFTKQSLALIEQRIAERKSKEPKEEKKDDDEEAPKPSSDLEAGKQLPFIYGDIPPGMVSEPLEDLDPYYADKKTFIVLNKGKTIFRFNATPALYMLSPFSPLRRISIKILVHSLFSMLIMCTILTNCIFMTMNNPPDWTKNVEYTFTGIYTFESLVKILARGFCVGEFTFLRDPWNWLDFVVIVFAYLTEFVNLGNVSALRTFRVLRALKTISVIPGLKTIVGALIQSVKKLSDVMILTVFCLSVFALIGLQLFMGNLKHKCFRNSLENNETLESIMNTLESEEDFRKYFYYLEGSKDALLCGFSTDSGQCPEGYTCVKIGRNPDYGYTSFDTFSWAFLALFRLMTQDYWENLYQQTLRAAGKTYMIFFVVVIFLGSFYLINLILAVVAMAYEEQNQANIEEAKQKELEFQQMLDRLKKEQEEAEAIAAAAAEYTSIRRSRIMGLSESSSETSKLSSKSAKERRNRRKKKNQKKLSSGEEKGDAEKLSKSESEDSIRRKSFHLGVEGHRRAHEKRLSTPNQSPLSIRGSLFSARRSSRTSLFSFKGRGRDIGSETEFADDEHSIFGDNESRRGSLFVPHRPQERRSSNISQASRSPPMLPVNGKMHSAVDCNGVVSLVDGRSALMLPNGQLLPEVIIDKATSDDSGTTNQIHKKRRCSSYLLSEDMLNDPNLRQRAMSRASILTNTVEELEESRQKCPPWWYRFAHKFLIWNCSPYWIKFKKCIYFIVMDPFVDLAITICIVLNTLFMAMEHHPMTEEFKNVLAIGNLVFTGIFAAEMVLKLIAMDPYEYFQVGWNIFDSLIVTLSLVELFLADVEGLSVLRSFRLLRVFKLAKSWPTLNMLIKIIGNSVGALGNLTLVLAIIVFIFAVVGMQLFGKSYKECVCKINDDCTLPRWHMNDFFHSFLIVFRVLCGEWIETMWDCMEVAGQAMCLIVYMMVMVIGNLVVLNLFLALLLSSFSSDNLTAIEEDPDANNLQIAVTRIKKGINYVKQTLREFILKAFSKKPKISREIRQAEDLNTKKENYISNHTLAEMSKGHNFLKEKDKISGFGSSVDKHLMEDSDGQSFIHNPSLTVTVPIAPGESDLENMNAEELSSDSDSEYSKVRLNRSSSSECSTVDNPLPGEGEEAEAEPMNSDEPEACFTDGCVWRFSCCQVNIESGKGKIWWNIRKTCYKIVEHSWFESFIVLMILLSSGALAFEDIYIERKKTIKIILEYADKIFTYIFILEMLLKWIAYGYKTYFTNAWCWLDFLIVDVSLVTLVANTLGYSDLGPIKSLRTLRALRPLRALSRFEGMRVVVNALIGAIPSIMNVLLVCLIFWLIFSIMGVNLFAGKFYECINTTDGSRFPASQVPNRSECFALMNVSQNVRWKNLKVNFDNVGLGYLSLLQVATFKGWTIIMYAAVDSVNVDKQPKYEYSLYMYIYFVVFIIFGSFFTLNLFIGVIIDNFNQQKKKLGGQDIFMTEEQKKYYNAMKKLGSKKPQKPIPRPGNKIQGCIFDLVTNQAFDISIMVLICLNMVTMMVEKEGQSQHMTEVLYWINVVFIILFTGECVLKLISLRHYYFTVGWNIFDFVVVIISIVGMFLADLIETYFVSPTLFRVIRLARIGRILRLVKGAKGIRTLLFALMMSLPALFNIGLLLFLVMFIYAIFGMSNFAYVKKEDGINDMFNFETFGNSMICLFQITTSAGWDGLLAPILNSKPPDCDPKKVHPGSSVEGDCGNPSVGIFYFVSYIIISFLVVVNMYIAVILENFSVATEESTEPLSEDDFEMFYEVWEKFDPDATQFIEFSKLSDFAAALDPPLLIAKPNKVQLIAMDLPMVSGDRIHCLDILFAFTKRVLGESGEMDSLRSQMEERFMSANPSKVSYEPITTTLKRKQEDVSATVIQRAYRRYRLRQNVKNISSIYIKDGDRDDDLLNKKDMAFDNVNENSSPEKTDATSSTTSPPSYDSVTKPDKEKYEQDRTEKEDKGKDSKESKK
observable: pIC50
pIC50 field: float, defined as -log10 of concentration (mol/L).

Given CCN(CC)CCOC(=O)c1ccccc1OC(C)=O.Cl [hydrochloride] , state its recorded pIC50. 4.75

----------
target: Nav1.8 (Homo sapiens); construct: expressed in transfected cells; assay: Inhibition of Nav1.8 channel current in HEK cells stably expressing Nav1.8; assay type: cell-based; details: HEK cells stably expressing Nav1.8, channel current
Sequence (Q9Y5Y9 whole entry): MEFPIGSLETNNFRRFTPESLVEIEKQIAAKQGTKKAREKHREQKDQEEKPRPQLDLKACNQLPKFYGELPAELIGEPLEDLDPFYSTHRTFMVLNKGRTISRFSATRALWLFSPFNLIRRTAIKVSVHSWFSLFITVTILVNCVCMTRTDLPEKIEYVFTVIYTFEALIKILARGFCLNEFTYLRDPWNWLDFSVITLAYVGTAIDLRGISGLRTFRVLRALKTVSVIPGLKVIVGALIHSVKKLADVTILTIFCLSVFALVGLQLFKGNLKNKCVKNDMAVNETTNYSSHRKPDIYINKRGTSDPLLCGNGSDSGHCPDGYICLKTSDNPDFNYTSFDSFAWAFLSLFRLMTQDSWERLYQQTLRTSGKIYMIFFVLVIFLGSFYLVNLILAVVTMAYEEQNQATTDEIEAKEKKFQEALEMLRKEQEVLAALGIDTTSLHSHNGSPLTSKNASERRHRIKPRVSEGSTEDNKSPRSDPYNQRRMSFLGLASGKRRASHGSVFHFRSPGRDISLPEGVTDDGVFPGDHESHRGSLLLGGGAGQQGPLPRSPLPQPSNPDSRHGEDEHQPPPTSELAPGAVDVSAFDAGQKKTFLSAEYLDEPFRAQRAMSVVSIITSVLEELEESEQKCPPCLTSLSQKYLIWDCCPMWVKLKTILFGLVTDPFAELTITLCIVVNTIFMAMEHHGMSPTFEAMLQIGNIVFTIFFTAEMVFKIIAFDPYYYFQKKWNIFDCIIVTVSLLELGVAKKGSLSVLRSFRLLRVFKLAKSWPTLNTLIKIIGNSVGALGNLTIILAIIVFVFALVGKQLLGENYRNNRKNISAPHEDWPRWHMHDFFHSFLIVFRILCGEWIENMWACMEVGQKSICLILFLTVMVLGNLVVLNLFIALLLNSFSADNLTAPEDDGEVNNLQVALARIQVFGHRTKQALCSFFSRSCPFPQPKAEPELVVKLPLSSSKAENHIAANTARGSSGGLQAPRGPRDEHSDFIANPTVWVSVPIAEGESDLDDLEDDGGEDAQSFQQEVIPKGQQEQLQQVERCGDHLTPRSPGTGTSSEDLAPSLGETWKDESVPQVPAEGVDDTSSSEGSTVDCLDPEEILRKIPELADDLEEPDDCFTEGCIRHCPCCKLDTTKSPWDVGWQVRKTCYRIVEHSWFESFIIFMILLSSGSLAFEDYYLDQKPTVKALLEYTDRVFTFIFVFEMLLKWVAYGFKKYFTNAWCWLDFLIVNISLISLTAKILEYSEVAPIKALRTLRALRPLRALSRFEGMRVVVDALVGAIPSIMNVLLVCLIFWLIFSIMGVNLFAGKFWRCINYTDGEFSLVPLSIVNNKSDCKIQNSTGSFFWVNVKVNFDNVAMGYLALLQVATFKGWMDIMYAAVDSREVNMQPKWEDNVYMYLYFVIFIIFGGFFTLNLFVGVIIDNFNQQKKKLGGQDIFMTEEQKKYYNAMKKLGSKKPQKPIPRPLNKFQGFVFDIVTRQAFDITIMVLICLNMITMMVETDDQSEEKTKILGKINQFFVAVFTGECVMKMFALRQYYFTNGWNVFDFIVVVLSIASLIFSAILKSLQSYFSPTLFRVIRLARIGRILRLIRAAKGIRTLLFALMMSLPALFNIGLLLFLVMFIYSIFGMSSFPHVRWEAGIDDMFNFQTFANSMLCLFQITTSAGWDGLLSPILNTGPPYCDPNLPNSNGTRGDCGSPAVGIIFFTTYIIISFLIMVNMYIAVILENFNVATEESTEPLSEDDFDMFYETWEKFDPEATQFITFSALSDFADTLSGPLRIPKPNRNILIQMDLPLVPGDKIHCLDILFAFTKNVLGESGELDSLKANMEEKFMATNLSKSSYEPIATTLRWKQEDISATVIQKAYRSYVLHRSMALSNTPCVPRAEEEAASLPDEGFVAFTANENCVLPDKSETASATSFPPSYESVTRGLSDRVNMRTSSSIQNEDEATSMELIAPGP
observable: pIC50
pIC50 field: float, defined as -log10 of concentration (mol/L).

// fetch Nav1.8 (Homo sapiens) pIC50 for CCN(CC)CCOC(=O)c1ccccc1OC(C)=O.Cl [hydrochloride] 4.13
